- Test system: DU145 prostate cancer cells
parameter measured: GI50 (µg/mL)

Here's what some known entries look like.
| compound | numeric readout |
| --- | --- |
| COc1cc2c(cc1F)N(c1nc(C)nc3ccccc13)CCO2 | 7.77 |
| COc1ccc2c(c1)CCCCN2c1nc(Cl)nc2ccccc12 | 0.056 |
| CNc1nc(N2CCCc3cc(OC)ccc32)c2ccccc2n1 | 0.0075 |
| Cc1ccc2c(c1)CCCN2c1nc(C)nc2ccccc12 | 0.051 |
| CC(=O)O[C@H]1C(=O)[C@@]2(C)[C@H]([C@H](OC(=O)c3ccccc3)[C@]3(O)C[C@H](OC(=O)[C@H](O)[C@@H](NC(=O)c4ccccc4)c4ccccc4)C(C)=C1C3(C)C)[C@]1(OC(C)=O)CO[C@@H]1C[C@@H]2O [Paclitaxel, paclitaxel, reference compound] | 0.0053 |

(A) CCOC1CCN(c2nc(Cl)nc3ccccc23)c2ccc(OC)cc21 (centres unmarked)
(B) COc1ccc2c(c1)CCCN2c1nc(NC2CC2)nc2ccccc12
(C) COC(=O)c1cc(Br)cc(N2CCCc3cc(OC)ccc32)c1
Sequence the entries by GI50, beginning with the highest number. List each label, following the requested order.
C, A, B
(C: 0.483 µg/mL, A: 0.06 µg/mL, B: 0.0045 µg/mL)

###

Entries with reported GI50 on DU145 prostate cancer cells
parameter measured: GI50 (µg/mL)

| molecule | numeric readout |
| --- | --- |
| COc1ccc2c(c1)CCN2c1nc(C)nc2ccccc12 | 0.059 |

(I) COc1ccc2c(c1)C(O)CCN2c1nc(C)nc2ccccc12 (stereo not shown)
(II) COc1ccc2c(c1)OCCN2c1nc(Cl)nc2ccccc12
For I and II , which recorded GI50 is lower? Please identify the chosen entry by its label.
I
(I: 0.006 µg/mL, II: 0.055 µg/mL)

###

parameter measured: melting point

| compound | melting point |
| --- | --- |
| Cc1nc(N2CCCc3cc(Br)ccc32)c2ccccc2n1 [Compound 7] | 129 to 130 °C |

Can you share its melting point? I mean this compound: COc1ccc2c(c1)CCCN2c1nc(OC)nc2ccccc12 [Compound 3]
161 to 163 °C

Same question, CNC(=O)c1cc(Br)cc(N2CCCc3cc(OC)ccc32)c1 [Compound 28] this time
166 to 167 °C

###

- System: DU145 prostate cancer cells
parameter measured: GI50 (µg/mL)

(a) COc1ccc2c(c1)CCCN(c1nc(C)nc3ccccc13)C2
(b) COc1ccc2c(c1)N(C)C(=O)CN2c1nc(C)nc2ccccc12
(c) COc1ccc2c(c1)CCCN2c1nc(N(C)C)nc2ccccc12
(d) COc1ccc2c(c1)CCCN2c1nc(C)nc2ccccc12
(e) COc1ccc2c(c1)C(=O)CCN2c1nc(Cl)nc2ccccc12
Which order do these fall in by GI50? Give them lowest to highest. List each label, following the requested order.
d, b, e, c, a

Data origin, for the record: patent US9751884B2
